target: UniProt:P43166; assay: Inhibition of human recombinant CA7 by CO2 hydration assay
Sequence (P43166 whole entry): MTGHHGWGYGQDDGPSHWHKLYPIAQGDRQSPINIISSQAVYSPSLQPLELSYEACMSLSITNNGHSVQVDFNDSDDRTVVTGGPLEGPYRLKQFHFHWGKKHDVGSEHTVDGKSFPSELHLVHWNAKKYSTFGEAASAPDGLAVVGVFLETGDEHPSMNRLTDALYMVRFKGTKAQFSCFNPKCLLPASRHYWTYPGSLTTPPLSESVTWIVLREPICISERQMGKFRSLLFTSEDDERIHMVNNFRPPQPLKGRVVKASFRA
PARAMETER MEASURED: pKi
Please keep in mind that pKi is minus log10 of the molar concentration; only the number is needed.

Entry O=C(O)P(=O)(O)O [FOSCARNET SODIUM] , tested on UniProt:P43166, has a reported pKi of 3.25

---

biological target: Carbonic anhydrase 6 (Homo sapiens); assay: Inhibition of human recombinant CA6 by CO2 hydration assay
Sequence (P23280 whole entry): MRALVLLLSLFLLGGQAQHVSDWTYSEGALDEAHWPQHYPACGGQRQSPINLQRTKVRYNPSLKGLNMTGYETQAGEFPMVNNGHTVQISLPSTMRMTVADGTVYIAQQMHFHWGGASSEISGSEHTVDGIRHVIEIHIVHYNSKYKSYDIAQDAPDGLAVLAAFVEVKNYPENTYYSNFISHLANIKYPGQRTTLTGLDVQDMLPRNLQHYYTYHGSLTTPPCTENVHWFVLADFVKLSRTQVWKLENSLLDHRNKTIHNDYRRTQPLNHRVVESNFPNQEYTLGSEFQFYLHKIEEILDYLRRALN
PARAMETER MEASURED: Ki (µM)
Supply the numeric figure in µM, leaving out any unit text.

// Ki lookup, compound = O=C(O)P(=O)(O)O [FOSCARNET SODIUM] , result: 1810
